- target-or-system: Glucagon-like peptide-1 receptor extracellular domain
- experiment: SPR; Biacore 8K, according to the user's manual; who was immobilised and the conditions are not stated
pKd: −log10 of the molar value.
// values below are reported pKd
endpoint-label: pKd

KEYSSPAATQRF [PEP02]: 5.98
KQYSSPTAWLVG [PEP03]: 5.76
EFIATAWLVKQT [PEP06]: 5.59
FTSEGTSSYLETGGPSSGAPPPS [PEP10]: 5.52
